Listed molecules paired with reported pIC50
- MEASUREMENT TARGET: HCoV-NL63 Mpro (Human coronavirus NL63)
- Sequence (P0C6X5 2940-3242 limits assumed): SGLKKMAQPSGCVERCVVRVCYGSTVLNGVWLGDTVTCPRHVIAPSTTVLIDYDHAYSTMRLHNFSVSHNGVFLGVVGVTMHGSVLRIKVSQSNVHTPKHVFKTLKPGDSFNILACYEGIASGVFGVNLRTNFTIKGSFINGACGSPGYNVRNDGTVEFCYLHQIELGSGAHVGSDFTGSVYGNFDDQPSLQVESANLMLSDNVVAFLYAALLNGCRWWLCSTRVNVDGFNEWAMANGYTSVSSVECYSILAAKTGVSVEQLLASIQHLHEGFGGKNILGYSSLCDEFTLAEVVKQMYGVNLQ
- EXPERIMENT DESCRIPTION: HCoV-NL63 Mpro enzymatic inhibition assay (fluorescence)
- Format: biochemical
The meaning of pIC50 here: minus log10 of the concentration in molar units.

CC1(C)[C@@H]2[C@@H](C(=O)N[C@H](C=O)C[C@@H]3CCCNC3=O)N(C(=O)CC3CCCCC3)C[C@@H]21    7.24
CC1(C)[C@@H]2[C@@H](C(=O)N[C@H](C=O)C[C@@H]3CCNC3=O)N(C(=O)c3cc4c(F)cc(F)cc4[nH]3)C[C@@H]21    7.43

# ---- query molecule ----
What does the data say about its pIC50? Entry: N#C[C@@H]1C[C@@H](C(=O)N[C@H](C=O)C[C@@H]2CCNC2=O)N(C(=O)c2cc3ccccc3[nH]2)C1
6.30

* * *

- MEASUREMENT TARGET: SARS-CoV-1 Mpro (Severe acute respiratory syndrome coronavirus)
- EXPERIMENT DESCRIPTION: biochemical
Entries and their measured pIC50 follow.
# log scale: pIC50 equals minus log10 of the concentration in mol/L

COc1cccc2[nH]c(C(=O)N3C[C@H]4[C@@H]([C@H]3C(=O)N[C@H](C=O)C[C@@H]3CCNC3=O)C4(C)C)cc12 [Compound 65]    7.48
CC1(C)[C@@H]2[C@@H](C(=O)N[C@H](C=O)C[C@@H]3CCNC3=O)N(C(=O)c3cc4c(C#N)cccc4[nH]3)C[C@@H]21 [Compound 59]    7.08
CC1(C)[C@@H]2[C@@H](C(=O)N[C@H](C=O)C[C@@H]3CCNC3=O)N(C(=O)c3cc4c(F)ccc(Cl)c4[nH]3)C[C@@H]21 [Compound 49]    7.53
Cc1cccc2cc(C(=O)N3C[C@H]4[C@@H]([C@H]3C(=O)N[C@H](C=O)C[C@@H]3CCNC3=O)C4(C)C)[nH]c12 [Compound 33]    7.47

Item CC1(C)[C@@H]2[C@@H](C(=O)N[C@H](C=O)C[C@@H]3CCNC3=O)N(C(=O)C3(c4cccc(Cl)c4)CC3)C[C@@H]21 [Compound 8] has what recorded pIC50?
7.92

Find the recorded pIC50 belonging to CC1(C)C[C@@H](C(=O)N[C@H](C=O)C[C@@H]2CCNC2=O)N(C(=O)c2cc3c(F)cccc3[nH]2)C1 [Compound 51] and report it.
7.42

Recorded pIC50 of C[C@@H]1C[C@@H](C(=O)N[C@H](C=O)C[C@@H]2CCNC2=O)N(C(=O)c2cc3ccccc3[nH]2)C1 [Compound 107] , please.
6.73

# input molecule: O=C[C@H](C[C@@H]1CCNC1=O)NC(=O)[C@@H]1CC2(CCC2)CN1C(=O)C1(c2ccccc2)CC1 [Compound 84] ; wanted: its pIC50
7.05

Which value of pIC50 has been reported for O=C1NCC[C@H]1C[C@H](NC(=O)[C@@H]1CC2(CC2)CN1C(=O)c1cc2ccccc2[nH]1)C(=O)c1nc2ccccc2s1 [Compound 127] in the records?
6.22

// pIC50 lookup, key: CC1(C)[C@@H]2[C@@H](C(=O)N[C@H](C=O)C[C@@H]3CCNC3=O)N(C(=O)CC3CCCCC3)C[C@@H]21 [Compound 53]
7.34

So what does the record say about pIC50 for CC1(C)[C@@H]2[C@@H](C(=O)N[C@H](C=O)C[C@@H]3CCNC3=O)N(C(=O)c3cc4cc(Cl)ccc4[nH]3)C[C@@H]21 [Compound 89] ?
7.18

Reported pIC50 for Cc1cccc2[nH]c(C(=O)N3C[C@H]4[C@@H]([C@H]3C(=O)N[C@H](C=O)C[C@@H]3CCNC3=O)C4(C)C)cc12 [Compound 85] : what is it?
7.32
